# credit: patent US9145354B2

# assayed-target: full length NS3/4a (Hepatitis C virus genotype 1b (isolate BK) (HCV), UniProt P26663)
# Sequence (P26663 1027-1657): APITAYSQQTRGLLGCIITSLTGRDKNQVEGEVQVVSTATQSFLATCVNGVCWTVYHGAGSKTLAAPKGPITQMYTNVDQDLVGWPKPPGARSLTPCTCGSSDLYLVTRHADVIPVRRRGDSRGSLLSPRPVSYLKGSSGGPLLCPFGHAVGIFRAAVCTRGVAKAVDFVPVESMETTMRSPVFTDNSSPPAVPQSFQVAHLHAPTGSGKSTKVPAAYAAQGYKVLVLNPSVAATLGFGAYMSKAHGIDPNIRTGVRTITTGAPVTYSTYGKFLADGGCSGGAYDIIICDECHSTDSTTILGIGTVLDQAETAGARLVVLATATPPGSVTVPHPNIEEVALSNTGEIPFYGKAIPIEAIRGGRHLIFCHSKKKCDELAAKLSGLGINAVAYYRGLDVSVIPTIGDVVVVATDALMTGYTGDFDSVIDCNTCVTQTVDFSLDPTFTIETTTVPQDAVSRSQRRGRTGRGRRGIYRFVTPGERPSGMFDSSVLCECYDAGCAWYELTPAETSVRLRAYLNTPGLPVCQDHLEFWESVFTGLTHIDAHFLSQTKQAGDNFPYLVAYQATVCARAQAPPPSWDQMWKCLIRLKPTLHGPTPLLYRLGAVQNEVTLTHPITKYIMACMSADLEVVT
# protocol-details: NS3 Protease Assay (Example A), FRET-based
# Type: biochemical
# run-parameters: HCV NS3 protease assay, full length NS3/4a; read-out: Assay A IC50 (μM) average
Structures can show the parent of a compound that is named as a salt.
IC50 values by entry

[
  {
    "molecule": "CC[C@@H](N[C@@H](C)CC(N)=O)c1ccc(Cl)c(C(=O)c2ccc(NC)nc2)c1F",
    "quantity-unit": "µM",
    "IC50": 0.37
  },
  {
    "molecule": "CC[C@@H](N)c1ccc(Cl)c(C(=O)c2ccncc2)c1F",
    "quantity-unit": "µM",
    "IC50": 0.84
  },
  {
    "molecule": "CC[C@@H](NCC1CC1)c1ccc(Cl)c(C(=O)c2cccnc2)c1F",
    "quantity-unit": "µM",
    "IC50": 2.7
  },
  {
    "molecule": "CC[C@@H](N[C@@H](C)CC(N)=O)c1ccc(Cl)c(C(=O)c2cc[n+]([O-])cc2)c1F",
    "quantity-unit": "µM",
    "IC50": 0.3
  },
  {
    "molecule": "N[C@@H](c1ccc(Cl)c(C(=O)c2ccc(CO)cc2)c1F)C1CC1 [Example 68, hydrochloride]",
    "quantity-unit": "µM",
    "IC50": 0.21
  },
  {
    "molecule": "CC[C@H](N[C@H](C)CO)c1ccc(Cl)c(C(=O)c2ccc(N)nc2)c1F",
    "quantity-unit": "µM",
    "IC50": 0.088
  },
  {
    "molecule": "CC[C@@H](N[C@@H](C)CC(N)=O)c1ccc(Cl)c(C(=O)c2ccc(C(=O)O)cc2)c1F",
    "quantity-unit": "µM",
    "IC50": 1.2
  },
  {
    "molecule": "C[C@@H](CC(N)=O)N[C@@H](c1ccc(Cl)c(C(=O)c2ccc(C#N)cn2)c1F)C1CC1",
    "quantity-unit": "µM",
    "IC50": 0.11
  },
  {
    "molecule": "CC[C@@H](N[C@@H](C)CC(N)=O)c1ccc(Cl)c(C(=O)c2cncc(N)c2)c1F",
    "quantity-unit": "µM",
    "IC50": 0.84
  },
  {
    "molecule": "[2H]C([2H])([2H])C([2H])([2H])[C@@H](N[C@@H](C)CC(N)=O)c1ccc(Cl)c(C(=O)c2ccc(N)nc2)c1F",
    "quantity-unit": "µM",
    "IC50": 0.13
  },
  {
    "molecule": "N#Cc1ccc(C(=O)c2c(Cl)ccc([C@H](N)C3CC3)c2F)cc1",
    "quantity-unit": "µM",
    "IC50": 0.058
  },
  {
    "molecule": "N[C@@H](c1ccc(Cl)c(C(=O)c2ccncc2)c1F)C1CC1",
    "quantity-unit": "µM",
    "IC50": 0.71
  },
  {
    "molecule": "CC[C@@H](N)c1ccc(C)c(C(=O)c2ccccc2)c1F",
    "quantity-unit": "µM",
    "IC50": 0.73
  },
  {
    "molecule": "CC[C@@H](N)c1ccc(Cl)c(C(=O)c2ccc(CO)cc2)c1F",
    "quantity-unit": "µM",
    "IC50": 0.21
  },
  {
    "molecule": "CC[C@@H](NC)c1ccc(Cl)c(C(=O)c2cccnc2)c1F",
    "quantity-unit": "µM",
    "IC50": 2.4
  },
  {
    "molecule": "CC[C@@H](N[C@@H](C)CC(N)=O)c1ccc(Cl)c(C(=O)c2ccc(-n3cccn3)nc2)c1F",
    "quantity-unit": "µM",
    "IC50": 0.33
  },
  {
    "molecule": "CC[C@@H](N[C@@H](C)CC(N)=O)c1ccc(F)c(C(=O)c2ccccc2)c1F",
    "quantity-unit": "µM",
    "IC50": 0.045
  }
]
